Cited source for all entries: patent US6632816B1

Molecular target: HIV protease (Human immunodeficiency virus type 1 group M subtype B, UniProt P04585)
Settings: FRET assay, Henderson equation

| compound | assay.target | Ki [nM] |
| --- | --- | --- |
| COC(=O)N[C@@H](Cc1ccccc1-c1ccccc1)C(=O)NCCCCC(CO)N(CC(C)C)S(=O)(=O)c1ccc(N)cc1 (stereo partly shown) | HIV protease (Human immunodeficiency virus type 1 group M subtype B, UniProt P04585) | 1.4 |

====

Molecular target: HIV protease (Human immunodeficiency virus type 1 group M subtype B, UniProt P04585)
Test: biochemical
# reported Ki; entries follow
parameter.measured: Ki (nM)

| molecule | parameter.measured | unit.label | operator.symbol | meas.value |
| --- | --- | --- | --- | --- |
| CC(C)CN([C@H](CO)CCCCNC(=O)[C@H](Cc1ccc2ccccc2c1)NC(=O)C1CCCCC1)S(=O)(=O)c1ccc(F)c(N)c1 [Example 88] | Ki | nM | < | 3.8 |
| COc1ccc(S(=O)(=O)N(CC(C)C)[C@H](CO)CCCCNC(=O)[C@H](Cc2ccc3ccccc3c2)NC(=O)N2CCOCC2)cc1 [Example 35] | Ki | nM | = | 1.3 |
| CC(=O)OCCN[C@@H](Cc1cccc2ccccc12)C(=O)NCCC[C@@H](CO)N(CC(C)C)S(=O)(=O)c1ccc(N)cc1 [Example 21] | Ki | nM | = | 3.9 |
| CC(C)CN([C@H](CO)CCCCNC(=O)[C@@H](N)C(c1ccccc1)c1ccccc1)S(=O)(=O)c1ccc(N)cc1 [Example 72] | Ki | nM | = | 7.5 |
| CC(C)CN([C@H](CO)CCCCNC(=O)[C@H](Cc1ccc2ccccc2c1)NC(=O)N1CCOCC1)S(=O)(=O)c1ccc(N)c(Cl)c1 [Example 51] | Ki | nM | = | 0.8 |
| CC(C)CN([C@H](CO)CCCCNC(=O)[C@H](Cc1ccc2ccccc2c1)NC(=O)C1CC1)S(=O)(=O)c1ccc(F)c(N)c1 [Example 87] | Ki | nM | < | 3.8 |
| CC(C)CN([C@H](CO)CCCCNC(=O)[C@@H](NC(=O)Cc1cccnc1)C(c1ccccc1)c1ccccc1)S(=O)(=O)c1ccc(N)cc1 [Example 99] | Ki | nM | < | 3.8 |
| CC(C)CN([C@H](CO)CCCCNC(=O)[C@H](Cc1ccc2ccccc2c1)NC(=O)c1ccncc1)S(=O)(=O)c1ccc(F)c(N)c1 [Example 84] | Ki | nM | < | 3.8 |
| COc1cc(C(=O)N[C@H](C(=O)NCCCC[C@@H](CO)N(CC(C)C)S(=O)(=O)c2ccc(N)cc2)C(c2ccccc2)c2ccccc2)ccc1O [Example 106] | Ki | nM | < | 3.8 |
| CC(C)CN([C@H](CO)CCCCNC(=O)[C@H](Cc1ccc2ccccc2c1)NC(=O)c1ccncc1)S(=O)(=O)c1ccc(N)cc1 [Example 55] | Ki | nM | = | 1.3 |
| CC(C)CN([C@H](CO)CCCCNC(=O)[C@@H](N)Cc1ccc2ccccc2c1)S(=O)(=O)c1ccc(N)c(F)c1 [Example 113] | Ki | nM | < | 3.8 |
| CCN[C@@H](Cc1cccc2ccccc12)C(=O)NCCC[C@@H](CO)N(CC(C)C)S(=O)(=O)c1ccc(N)cc1 [Example 26] | Ki | nM | = | 3 |
| CC(C)CN([C@H](CO)CCCCNC(=O)[C@H](Cc1ccc2ccccc2c1)NC(=O)N(C)C)S(=O)(=O)c1ccc(N)cc1 [Example 41] | Ki | nM | = | 1.1 |
| COC(=O)CN[C@@H](Cc1cccc2ccccc12)C(=O)NCCC[C@@H](CO)N(CC(C)C)S(=O)(=O)c1ccc(N)cc1 [Example 15] | Ki | nM | = | 4.2 |
| CC(=O)N[C@@H](Cc1ccc2ccccc2c1)C(=O)NCCCC[C@@H](CO)N(CC(C)C)S(=O)(=O)c1ccc(N)cc1 [Example 48] | Ki | nM | = | 3.6 |
| COC(=O)N[C@@H](Cc1ccccc1-c1ccc(OC)cc1)C(=O)NCCC[C@@H](CO)N(CC(C)C)S(=O)(=O)c1ccc(N)cc1 [Example 6] | Ki | nM | = | 13 |
| COC(=O)N[C@@H](Cc1ccccc1-c1ccc(OC)cc1)C(=O)NCCCC[C@@H](CO)N(CC(C)C)S(=O)(=O)c1ccc(N)cc1 [Example 31] | Ki | nM | = | 0.667 |
| CC(C)CN([C@H](CO)CCCCNC(=O)[C@@H](NC(=O)c1ccccn1)C(c1ccccc1)c1ccccc1)S(=O)(=O)c1ccc(N)cc1 [Example 96] | Ki | nM | < | 3.8 |
| COC(=O)N[C@@H](Cc1ccccc1-c1ccccc1)C(=O)NCCCC[C@@H](CO)N(CC(C)C)S(=O)(=O)c1ccc(N)cc1 [Example 39] | Ki | nM | = | 0.521 |
| CC(C)CN([C@H](CO)CCCNC(=O)[C@H](Cc1cccc2ccccc12)NC(=O)OCC(F)(F)F)S(=O)(=O)c1ccc(N)cc1 [Example 7] | Ki | nM | = | 4 |
| COC(=O)N[C@H](C(=O)NCCCC[C@@H](CO)N(CC(C)C)S(=O)(=O)c1ccc(C#N)cc1)C(c1ccccc1)c1ccccc1 [Example 79] | Ki | nM | < | 3.8 |
| CC(C)CN([C@H](CO)CCCCNC(=O)[C@H](Cc1ccc2ccccc2c1)NC(=O)OC(C)(C)C)S(=O)(=O)c1ccc(F)c(N)c1 [Example 90] | Ki | nM | = | 4 |
| CC(C)CN([C@H](CO)CCCCNC(=O)[C@H](Cc1ccc2ccccc2c1)NC(=O)c1cccnc1)S(=O)(=O)c1ccc(N)cc1 [Example 54] | Ki | nM | = | 1.4 |
| COC(=O)N[C@@H](Cc1ccc2ccccc2c1)C(=O)NCCCC[C@@H](CO)N(CC(C)C)S(=O)(=O)c1ccc(N)cc1 [Example 29] | Ki | nM | = | 1.2 |
| CC(C)CN[C@@H](Cc1ccc2ccccc2c1)C(=O)NCCCC[C@@H](CO)N(CC(C)C)S(=O)(=O)c1ccc(N)cc1 [Example 63] | Ki | nM | = | 3.9 |
